Taken from patent US5106851A.

Molecular target: guinea pig ileum (Cavia porcellus, UniProt H0W1Z3)
Construct: A 2 cm section of terminal ileum was prepared
Sequence (H0W1Z3 1-590): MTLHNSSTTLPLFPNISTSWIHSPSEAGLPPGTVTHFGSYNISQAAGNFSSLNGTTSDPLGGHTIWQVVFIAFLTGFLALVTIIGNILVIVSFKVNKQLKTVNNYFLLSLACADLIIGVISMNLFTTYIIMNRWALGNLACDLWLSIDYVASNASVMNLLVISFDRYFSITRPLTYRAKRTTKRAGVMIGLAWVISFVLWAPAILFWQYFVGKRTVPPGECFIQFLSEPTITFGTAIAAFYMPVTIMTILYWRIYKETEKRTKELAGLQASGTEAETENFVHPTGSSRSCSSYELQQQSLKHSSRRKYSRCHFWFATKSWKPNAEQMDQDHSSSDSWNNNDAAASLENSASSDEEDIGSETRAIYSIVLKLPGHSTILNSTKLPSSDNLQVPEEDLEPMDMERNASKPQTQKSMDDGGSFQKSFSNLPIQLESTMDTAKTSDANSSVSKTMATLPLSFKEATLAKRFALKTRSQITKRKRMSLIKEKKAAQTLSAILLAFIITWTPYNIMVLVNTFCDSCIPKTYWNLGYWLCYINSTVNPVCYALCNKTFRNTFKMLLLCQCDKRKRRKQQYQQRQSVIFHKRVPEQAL
Experiment: Functional studies in vitro, isolated guinea pig ileum contracted with bethanechol
Conditions: guinea pig terminal ileum, Tyrode solution, cumulative conc. 0.3-10 μM; read-out: EC50 of bethanechol (contraction)
Attribute measured: EC50 (nM)
Numeric answer only, unit nM assumed.

Q: // EC50 lookup, key: CC(C[N+](C)(C)C)OC(N)=O (stereo not shown) [bethanechol, reference compound]
A: 1500

====

Measured pKd, listed per entry for reference.
Target: Muscarinic M2 (Rattus norvegicus, UniProt P10980)
Construct: displacement of ^3 H-NMS from total heart homogenate; from tissue; host or cells: total heart homogenate
Sequence (P10980 whole entry): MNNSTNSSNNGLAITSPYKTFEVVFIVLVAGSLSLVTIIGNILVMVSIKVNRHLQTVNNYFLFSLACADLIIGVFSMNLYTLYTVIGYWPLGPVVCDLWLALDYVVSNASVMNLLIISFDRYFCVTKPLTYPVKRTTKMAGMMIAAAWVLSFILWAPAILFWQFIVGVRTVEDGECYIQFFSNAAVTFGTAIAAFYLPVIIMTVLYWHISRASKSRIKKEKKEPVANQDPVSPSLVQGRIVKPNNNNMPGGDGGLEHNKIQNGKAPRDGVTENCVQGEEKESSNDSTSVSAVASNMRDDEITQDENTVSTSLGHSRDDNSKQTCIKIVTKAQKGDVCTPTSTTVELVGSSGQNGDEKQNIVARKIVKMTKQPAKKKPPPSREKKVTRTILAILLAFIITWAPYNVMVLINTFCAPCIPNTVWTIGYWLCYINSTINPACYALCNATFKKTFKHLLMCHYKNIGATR
Assay: Displacement of 3H-NMS from total heart homogenate (receptor binding studies in vitro)
Protocol: Muscarinic M1 activity was determined by studying the displacement of ^3 H-pirenzepine from cerebral cortex homogenate according to the procedure reported below: The cerebral cortex donors were male CD-COOBBS rats, 220-250 g body weight. […] 1 ml of the homogenate was incubated for 45 min at 30° C. in the presence of a maker ligand and different concentration of the cold ligand, conditions under which equilibrium was reached as determined by appropriate association experiments. […]
pKd here is simply -log10 of the concentration when that concentration is written in mol/L.

CN1[C@@H]2CC[C@H]1C[C@@H](OC(=O)N1Cc3ccccc3NC1=O)C2 [Compound 16]; 6.88

Then this compound:
Q: // pKd lookup, key: CN1[C@@H]2CC[C@H]1C[C@@H](NC(=O)N1Cc3ccccc3NC1=O)C2 [Compound 23]
A: 7.22
